assay-method-text: total protein half-life in vivo (active degradation + dilution); higher = more stable protein
assay-setup: E. coli NCM3722 delta-hslV; growth: N-lim chemostat; doubling time 6 h
assay-metric: total protein half-life in vivo (h)
Expressed in h, but write only the number.

Incoming: Look up and state reported total protein half-life in vivo for MPRFAANLSMMFTEVPFIERFAAARKAGFDAVEFLFPYNYSTLQIQKQLEQNHLTLALFNTAPGDINAGEWGLSALPGREHEAHADIDLALEYALALNCEQVHVMAGVVPAGEDAERYRAVFIDNIRYAADRFAPHGKRILVEALSPGVKPHYLFSSQYQALAIVEEVARDNVFIQLDTFHAQKVDGNLTHLIRDYAGKYAHVQIAGLPDRHEPDDGEINYPWLFRLFDEVGYQGWIGCEYKPRGLTEEGLGWFDAWR
Outgoing: 2.23

Incoming: Look up and state reported total protein half-life in vivo for MKLDEIARLAGVSRTTASYVINGKAKQYRVSDKTVEKVMAVVREHNYHPNAVAAGLRAGRTRSIGLVIPDLENTSYTRIANYLERQARQRGYQLLIACSEDQPDNEMRCIEHLLQRQVDAIIVSTSLPPEHPFYQRWANDPFPIVALDRALDREHFTSVVGADQDDAEMLAEELRKFPAETVLYLGALPELSVSFLREQGFRTAWKDDPREVHFLYANSYEREAAAQLFEKWLETHPMPQALFTTSFALLQGVMDVTLRRDGKLPSDLAIATFGDNELLDFLQCPVLAVAQRHRDVAERVLEIVLASLDEPRKPKPGLTRIKRNLYRRGVLSRS [P0ACP1]
Outgoing: 5.38

Incoming: Look up and state reported total protein half-life in vivo for MSEKYIVTWDMLQIHARKLASRLMPSEQWKGIIAVSRGGLVPGALLARELGIRHVDTVCISSYDHDNQRELKVLKRAEGDGEGFIVIDDLVDTGGTAVAIREMYPKAHFVTIFAKPAGRPLVDDYVVDIPQDTWIEQPWDMGVVFVPPISGR [P0A9M5]
Outgoing: 4.15
